The measurements presented in this section are drawn from PubChem BioAssay AID2060901.

system: 422866-222-R5-J1-PDC complex spheroids viability; test: Anticancer human tumor 422866-222-R5-J1-PDC patient-derived pancreatic adenocarcinoma cell line growth inhibition [RAS]; conditions: second compound 0.01 µM; first compound 0.00316 µM; active compounds read low;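 also: spheroids exposed to compounds for 7 days; 100% = DMSO vehicle control viability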
Entries whose viability, T/C is below 30% take label 1; entries at or above 30% take label 0.

- molecule: "CCN1CCN(Cc2ccc(Nc3ncc(F)c(-c4cc(F)c5nc(C)n(C(C)C)c5c4)n3)nc2)CC1 + C=CC(=O)N1CCN(c2nc(OCC3CCCN3C)nc3c(F)c(-c4nc(N)cc(C)c4C(F)(F)F)c(Cl)cc23)C(C)C1"
  label.class: "label 1"
- molecule: "C=CC(=O)Nc1cc(Nc2nccc(-c3cn(C)c4ccccc34)n2)c(OC)cc1N(C)CCN(C)C + C=CC(=O)N1CCN(c2nc(OCC3CCCN3C)nc3c(F)c(-c4nc(N)cc(C)c4C(F)(F)F)c(Cl)cc23)C(C)C1"
  label.class: "label 0"
- molecule: "O=C(c1ccc(F)c(F)c1Nc1ccc(I)cc1F)N1CC(O)([C@@H]2CCCCN2)C1 + C=CC(=O)N1CCN(c2nc(OCC3CCCN3C)nc3c(F)c(-c4nc(N)cc(C)c4C(F)(F)F)c(Cl)cc23)C(C)C1"
  label.class: "label 0"
- molecule: "CC(C)n1nc(-c2ccc3oc(N)nc3c2)c2c(N)ncnc21 + C=CC(=O)N1CCN(c2nc(OCC3CCCN3C)nc3c(F)c(-c4nc(N)cc(C)c4C(F)(F)F)c(Cl)cc23)C(C)C1"
  label.class: "label 1"
- molecule: "Nc1ccn(C2OC(CO)C(O)C2(F)F)c(=O)n1 (stereo not given) + C=CC(=O)N1CCN(c2nc(OCC3CCCN3C)nc3c(F)c(-c4nc(N)cc(C)c4C(F)(F)F)c(Cl)cc23)C(C)C1"
  label.class: "label 1"
